Values from patent US5235061A

# Test system: Phytophthora capsisi
# ASSAY_NOTES: In vitro percent disease control (radii of spore growth on agar)
# Format: cell-based
# CONDITION_DESCRIPTION: Phytophthora; 50 ppm; read-out: % controlled, Phy ca.
ASSAY_READOUT: inhibition of growth at 50 ppm (%)
Numbers only, in %.

The following compounds have reported results that may help.
C[Si](C)(C[Si](Cn1cncn1)(c1ccc(F)cc1)c1ccc(-c2ccccc2)cc1)c1ccc(F)cc1 (stereo not shown) : 12
C=CC[Si](CC=C)(Cn1cncn1)C[Si](CC=C)(CC=C)c1ccccc1 : 60
CCOc1ccc([Si](C)(Cn2cncn2)C[Si](C)(C)c2ccc(F)cc2)cc1 (stereo not shown) : 9

Now look at this entry.
Enquiry: So what's the measured inhibition of growth at 50 ppm for this one? C=CC[Si](C)(Cn1cncn1)C[Si](CC=C)(c1ccc(OCC)cc1)c1ccc(OCC)cc1 (stereo not shown)
Return: 55

====

# System: Fusarium moniliforme
# ASSAY_NOTES: In vitro percent disease control (radii of spore growth on agar)
# Type: cell-based
# CONDITION_DESCRIPTION: 100 ppm
ASSAY_READOUT: % controlled, Fu. mo. (%)
Answers are plain numbers, in %.

The following compounds have reported results that may help.
C[Si](C)(C[Si](Cn1cncn1)(c1ccc(Cl)cc1)c1ccc(Cl)cc1)c1ccc(F)cc1 : 55
C=CC[Si](C[Si](CC)(Cn1cncn1)c1ccc(OCC)cc1)(c1ccc(F)cc1)c1ccc(F)cc1 (stereo not drawn) : 90

Now look at this entry.
Enquiry: So what's the measured % controlled, Fu. mo. for this one? `CCOc1ccc([Si](Cn2cncn2)(C[Si](C)(C)c2ccc(F)cc2)c2ccc(OCC)cc2)cc1`
Return: 63

====

# System: Rhizopus sp.
# ASSAY_NOTES: In vitro percent disease control (radii of spore growth on agar)
# Type: cell-based
# CONDITION_DESCRIPTION: Rhizopus, 50 ppm; read-out: % controlled, Rhi. sp.
ASSAY_READOUT: inhibition of growth at 50 ppm (%)
One number for each entry, in %.

The following compounds have reported results that may help.
C=CC[Si](C)(Cn1cncn1)C[Si](CC=C)(CC=C)c1ccc(F)cc1 (stereo not drawn) : 56
COc1ccc([Si](Cn2cncn2)(C[Si](C)(C)c2ccc(Cl)cc2)c2ccc(Cl)cc2)cc1 (stereo not drawn) : 46
C[Si](C)(C[Si](Cn1cncn1)(c1ccc(Cl)cc1)c1ccc(Cl)cc1)c1ccc(F)cc1 : 26
C[Si](C)(C[Si](Cn1cncn1)(c1ccc(F)cc1)c1ccc(F)cc1)c1ccc(Cl)cc1 : 78
C=CC[Si](C)(Cn1cncn1)C[Si](CC=C)(c1ccccc1)c1ccc(F)cc1 (stereo not drawn) : 50

Batch lookup, inhibition of growth at 50 ppm per entry.
1. C=CC[Si](C)(Cn1cncn1)C[Si](CC=C)(c1ccc(F)cc1)c1ccc(F)cc1 (stereo not drawn)
2. CCOc1ccc([Si](C)(C)C[Si](Cn2cncn2)(c2ccc(F)cc2)c2ccc(Cl)cc2)cc1 (stereo not drawn)
3. C[Si](C)(C[Si](C)(Cn1cncn1)c1ccc(F)cc1)c1ccc(-c2ccccc2)cc1 (stereo not drawn)
4. C=CC[Si](Cn1cncn1)(C[Si](CC=C)(c1ccccc1)c1ccc(-c2ccccc2)cc1)c1ccc(F)cc1 (stereo not drawn)

Return:
100
50
50
50

====

# System: Rhizopus sp.
# ASSAY_NOTES: In vitro percent disease control (radii of spore growth on agar)
# Format: cell-based
# CONDITION_DESCRIPTION: Rhizopus, 100 ppm; read-out: % controlled, Rhi. sp.
Label 1 when inhibition of growth at 100 ppm is at or above 50%; otherwise label -1.

C=CC[Si](Cn1cncn1)(C[Si](CC=C)(c1ccc(F)cc1)c1ccc(-c2ccccc2)cc1)c1ccc(F)cc1 (centres unmarked) : 1
C=CC[Si](C)(Cn1cncn1)C[Si](CC=C)(c1ccccc1)c1ccc(-c2ccccc2)cc1 (centres unmarked) : 1
C=CC[Si](C)(Cn1cncn1)C[Si](CC=C)(c1ccc(OCC)cc1)c1ccc(OCC)cc1 (centres unmarked) : 1
C[Si](C)(C[Si](C)(Cn1cncn1)c1ccc(F)cc1)c1ccc(F)cc1 (centres unmarked) : -1
C[Si](C)(C[Si](C)(Cn1cncn1)c1ccc(Cl)cc1)c1ccc(Cl)cc1 (centres unmarked) : -1

API: the following record is the query input.
Enquiry: Determine whether measured inhibition of growth at 100 ppm meets or exceeds 50% for `CCOc1ccc([Si](Cn2cncn2)(C[Si](C)(C)c2ccc(F)cc2)c2ccc(OCC)cc2)cc1`
Return: -1

====

# Test system: Botryosphaeria dothidea Macrophoma sp.
# ASSAY_NOTES: In vitro percent disease control (radii of spore growth on agar)
# Assay type: cell-based
# CONDITION_DESCRIPTION: Botryosphaeria dothidea, 50 ppm; read-out: % controlled, Bo.do (Ma.)
ASSAY_READOUT: inhibition of growth at 50 ppm (%)
Give bare numbers, in %.

The following compounds have reported results that may help.
C=CC[Si](Cn1cncn1)(C[Si](CC=C)(c1ccc(F)cc1)c1ccc(-c2ccccc2)cc1)c1ccc(F)cc1 (centres unmarked) : 79
C[Si](C)(C[Si](C)(Cn1cncn1)c1ccc(F)cc1)c1ccc(-c2ccccc2)cc1 (centres unmarked) : 79
C[Si](C)(C)C[Si](Cn1cncn1)(c1ccc(Cl)cc1)c1ccc(Cl)cc1 : 70
COc1ccc([Si](Cn2cncn2)(C[Si](C)(C)c2ccc(Cl)cc2)c2ccc(Cl)cc2)cc1 (centres unmarked) : 75
C=CC[Si](C)(Cn1cncn1)C[Si](CC=C)(c1ccccc1)c1ccccc1 (centres unmarked) : 80
C=CC[Si](C)(Cn1cncn1)C[Si](CC=C)(CC=C)c1ccc(F)cc1 (centres unmarked) : 79
C[Si](C)(C[Si](Cn1cncn1)(c1ccc(F)cc1)c1ccc(F)cc1)c1ccc(Cl)cc1 : 76

Now look at this entry.
Enquiry: Could you share what inhibition of growth at 50 ppm was measured for `C=CC[Si](CC=C)(Cn1cncn1)C[Si](CC=C)(CC=C)c1ccccc1` , tested on Botryosphaeria dothidea Macrophoma sp.?
Return: 65

====

# System: Rhizopus sp.
# ASSAY_NOTES: In vitro percent disease control (radii of spore growth on agar)
# Assay type: cell-based
# CONDITION_DESCRIPTION: Rhizopus, 50 ppm; read-out: % controlled, Rhi. sp.
# Protocol: The compounds of this invention were dissolved respectively in acetone in an amount equal to 10% of the final volume and then in purified water at the concentration of 100 ppm and 50 ppm. Each of the solution was mixed with potato-sucrose-agar medium in a 6" petri dish and one of the fungi was spotted at the center of the dish. The dish was incubated in growth room for several days. The percent disease control was derived from the radii of spore growth. […]
ASSAY_READOUT: inhibition of growth at 50 ppm
Please make sure the unit comes right after the number.

The following molecules have reported results that may help.
CCOc1ccc([Si](C)(Cn2cncn2)C[Si](C)(C)c2ccc(F)cc2)cc1 (stereo not shown) : 29%
C=CC[Si](C[Si](C)(Cn1cncn1)c1ccc(F)cc1)(c1ccc(F)cc1)c1ccc(F)cc1 (stereo not shown) : 19%
C[Si](C)(C[Si](C)(Cn1cncn1)c1ccc(Cl)cc1)c1ccc(Cl)cc1 (stereo not shown) : 31%

Batch lookup, inhibition of growth at 50 ppm per entry.
1. C[Si](C)(C[Si](C)(Cn1cncn1)c1ccc(F)cc1)c1ccc(Cl)cc1 (stereo not shown)
2. C[Si](C)(C)C[Si](Cn1cncn1)(c1ccc(Cl)cc1)c1ccc(Cl)cc1
3. C=CC[Si](CC=C)(Cn1cncn1)C[Si](CC=C)(CC=C)c1ccccc1
4. C[Si](C)(C[Si](C)(Cn1cncn1)c1ccc(Cl)cc1)c1ccc(F)cc1 (stereo not shown)
5. CCOc1ccc([Si](Cn2cncn2)(C[Si](C)(C)c2ccc(F)cc2)c2ccc(OCC)cc2)cc1
6. C=CC[Si](C[Si](C)(Cn1cncn1)c1ccc(F)cc1)(c1ccccc1)c1ccc(-c2ccccc2)cc1 (stereo not shown)

Return:
["59%", "51%", "50%", "18%", "19%", "100%"]

====

# Tested on: Botryosphaeria dothidea Macrophoma sp.
# ASSAY_NOTES: In vitro percent disease control (radii of spore growth on agar)
# Format: cell-based
# CONDITION_DESCRIPTION: Botryosphaeria dothidea, 50 ppm; read-out: % controlled, Bo.do (Ma.)
ASSAY_READOUT: inhibition of growth at 50 ppm (%)
Give bare numbers, in %.

C[Si](C)(C[Si](C)(Cn1cncn1)c1ccc(Cl)cc1)c1ccc(F)cc1 (stereo not drawn) : 43
C=CC[Si](C)(Cn1cncn1)C[Si](CC=C)(c1ccc(F)cc1)c1ccc(F)cc1 (stereo not drawn) : 100
C=CC[Si](C[Si](C)(Cn1cncn1)c1ccc(F)cc1)(c1ccccc1)c1ccc(-c2ccccc2)cc1 (stereo not drawn) : 100
CCOc1ccc([Si](Cn2cncn2)(C[Si](C)(C)c2ccc(F)cc2)c2ccc(OCC)cc2)cc1 : 74

Batch lookup, inhibition of growth at 50 ppm per entry.
1. C[Si](C)(C[Si](Cn1cncn1)(c1ccc(F)cc1)c1ccc(F)cc1)c1ccc(-c2ccccc2)cc1
2. C=CC[Si](C[Si](C)(Cn1cncn1)c1ccc(OCC)cc1)(c1ccccc1)c1ccc(-c2ccccc2)cc1 (stereo not drawn)
3. C[Si](C)(C[Si](C)(Cn1cncn1)c1ccc(F)cc1)c1ccc(Cl)cc1 (stereo not drawn)
4. C[Si](C)(C[Si](C)(Cn1cncn1)c1ccc(F)cc1)c1ccc(F)cc1 (stereo not drawn)
5. C=CC[Si](C)(Cn1cncn1)C[Si](CC=C)(CC=C)CC=C (stereo not drawn)

Return:
1. 47
2. 100
3. 74
4. 40
5. 70
